Biological target: human B1R (Homo sapiens, UniProt P46663)
Construct: expressed in transfected cells; host or cells: CHO K1 cells (hB1R cells)
Sequence (P46663 whole entry): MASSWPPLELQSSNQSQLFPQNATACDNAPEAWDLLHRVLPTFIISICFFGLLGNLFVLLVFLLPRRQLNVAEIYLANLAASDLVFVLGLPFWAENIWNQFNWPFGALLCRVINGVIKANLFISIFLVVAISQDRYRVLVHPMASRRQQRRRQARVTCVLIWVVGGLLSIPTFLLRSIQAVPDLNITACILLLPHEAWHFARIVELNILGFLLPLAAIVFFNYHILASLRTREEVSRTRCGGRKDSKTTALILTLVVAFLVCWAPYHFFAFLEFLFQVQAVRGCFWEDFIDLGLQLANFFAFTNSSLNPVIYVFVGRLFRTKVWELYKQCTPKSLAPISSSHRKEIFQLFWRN
Assay: FLIPR Ca2+ influx assay, B1R antagonism, human (hB1R CHO K1 cells)
Assay type: cell-based
Details: test substance 10 μM; CHO K1 cells stably transfected with human B1R; agonist Lys-Des-Arg9-bradykinin at EC80; % inhibition compared with maximum achievable inhibition; read-out: B1R antagonism, human [10 μM] % inhibition
Excerpt: The agonistic or antagonistic action of substances can be quantified on the bradykinin receptor 1 (B1R) of the species human and rat using ectopically expressing cell lines (CHO K1 cells) and with the aid of a Ca^2+-sensitive dye (Fluo-4) using a fluorescent imaging plate reader (FLIPR). […] The agonistic or antagonistic action of substances can be determined on the bradykinin receptor 1 (B1R) of the species human and rat using the following assay. […]
measuredMetric: inhibition at 10 µM (%)
Give bare numbers, in %.

O=C(COCC1CCCCN1S(=O)(=O)c1ccccc1C(F)(F)F)N1CCC(CCCN2CCCC2)(c2cccnc2)CC1 (centres unmarked)
100
CN(C)CCC1(c2cccnc2)CCN(C(=O)COCC2CCc3ccccc3N2S(=O)(=O)c2ccc(Cl)c(Cl)c2)CC1 (centres unmarked)
103
COc1cc(C)c(S(=O)(=O)N2CCCCC2COCC(=O)N2CCC(CCCN3CCCC3)(c3cccnc3)CC2)c(C)c1 (centres unmarked)
97
COc1cc(C)c(S(=O)(=O)N2c3ccccc3CCC2COCC(=O)N2CCC(CCCN3CCCC3)(c3cccnc3)CC2)c(C)c1 (centres unmarked)
100
O=C(COCC1COc2ccccc2N1S(=O)(=O)c1ccccc1C(F)(F)F)N1CCC(CCCN2CCCC2)(c2cccnc2)CC1 (centres unmarked)
100
Cc1cccc(Cl)c1S(=O)(=O)N(CCOCC(=O)N1CCC(CCCN2CCCC2)(c2cccc(C(F)(F)F)c2)CC1)C1CC1
97

Your task in this section: give inhibition at 10 µM for each listed record.
1. Cc1cccc(Cl)c1S(=O)(=O)N(CCOCC(=O)N1CCC(CCCN2CCCC2)(c2cccc(F)c2)CC1)C1CC1
2. Cc1cccc(Cl)c1S(=O)(=O)N(CCOCC(=O)N1CCC(CCCN2CCCC2)(c2cccc(Cl)c2)CC1)C1CC1
3. Cc1cc(S(=O)(=O)N2CCCCC2CCC(=O)N2CCC(CCN(C)C)(c3cccnc3)CC2)c(C)cc1Cl (centres unmarked)
4. Cc1cc(S(=O)(=O)N2CCCCC2CCC(=O)N2CCC(CCN3CCCC3)(c3cccnc3)CC2)c(C)cc1Cl (centres unmarked)
5. COc1cc(C)c(S(=O)(=O)N2CCCC[C@H]2COCC(=O)N2CCC(CN3CCCC3)(c3cccnc3)CC2)c(C)c1

Output line:
100
100
102
101
97

Your task in this section: give inhibition at 10 µM for each listed record.
1. COc1cc(C)c(S(=O)(=O)N2c3ccccc3OCC2COCC(=O)N2CCC(CCCN3CCCC3)(c3cccnc3)CC2)c(C)c1 (centres unmarked)
2. Cc1cccc(Cl)c1S(=O)(=O)N1c2ccccc2OCC1COCC(=O)N1CCC(CCCN2CCCC2)(c2cccnc2)CC1 (centres unmarked)
3. COc1cc(C)c(S(=O)(=O)N2CCCCC2COCC(=O)N2CCC(CCN(C)C)(c3cccnc3)CC2)c(C)c1 (centres unmarked)

Output line:
[100, 100, 104]

Your task in this section: give inhibition at 10 µM for each listed record.
1. COc1cc(C)c(S(=O)(=O)N(CCOCC(=O)N2CCC(CCCN3CCCC3)(c3cccnc3)CC2)Cc2cnc3ccccc3c2)c(C)c1
2. COc1cc(C)c(S(=O)(=O)N(CCOCC(=O)N2CCC(CCCN3CCCC3)(c3cccnc3)CC2)Cc2ccccc2)c(C)c1
3. COc1cc(C)c(S(=O)(=O)N(C)CCOCC(=O)N2CCC(CCCN(C)C)(c3cccnc3)CC2)c(C)c1

Output line:
1. 100
2. 100
3. 100
